assay_comment: Homolysis kinetics of alkoxyamines by EPR (growth of nitroxide)
Format: physicochemical
run_conditions: C–ON bond homolysis in t-BuPh, EPR, 0.1 mM alkoxyamine, O2 as alkyl radical scavenger, mixture of diastereoisomers; T (°C): A1L 128.0, A3L 125.0, A5L 130.0, A6L 125, A7L 126.5, A1D 122.5, A3D 119.8, A5D 130

compound: CC(ON1C(C)(C)CCCC1(C)C)c1ccc(NC(=O)[C@H](Cc2ccccc2)NC(=O)[C@@H](NC(=O)[C@H](Cc2ccccc2)NC(=O)CCC(=O)O)C(C)C)cc1 (stereo partly drawn)
Homolysis rate constant kd: 15.0 10^−4 s^−1
//
compound: CC(ON1C(C)(C)CCCC1(C)C)c1ccc(NC(=O)[C@H](Cc2ccccc2)NC(=O)OC(C)(C)C)cc1 (mixture of isomers)
Homolysis rate constant kd: 11.0 10^−4 s^−1
//
compound: CC(ON1C(C)(C)CCCC1(C)C)c1ccc(NC(=O)[C@H](Cc2ccccc2)NC(=O)[C@@H](NC(=O)[C@H](Cc2ccccc2)NC(=O)OC(C)(C)C)C(C)C)cc1 (stereo partly drawn)
Homolysis rate constant kd: 8.4 10^−4 s^−1
